Hi there, I'd appreciate the recorded EC50 at 48 h for every entry that follows.
measurement.description: Cytotoxicity against HEK293 cells assessed as reduction in cell viability after 48 hrs by alamar blue assay
Format: toxicity, cell-based
reported.conditions: human

compound: O=S(=O)(Nc1ccc(-c2nc3cc(NS(=O)(=O)c4ccccc4Cl)ccc3o2)cc1)c1ccccc1Cl
EC50 at 48 h: 75 µM
//
compound: CC1CS(=O)(=O)CCN1/N=C/c1ccc([N+](=O)[O-])o1 (stereo not drawn)
EC50 at 48 h: > 100 µM

--- query ---
Memo: O=C(O)c1ccccc1S(=O)(=O)Nc1ccc(-c2nc3cc(NS(=O)(=O)c4ccccc4C(=O)O)ccc3o2)cc1 , reported EC50 at 48 h: > 100 µM
